Data origin, for the record: patent US4772586A

Tested on: antidiuretic response to arginine vasopressin
Assay: Antagonism of the antidiuretic response to arginine vasopressin (Anti-ADH)
Format: in vivo, rats
Settings: Table 1; estimated in vivo pA2 = negative log of effective dose divided by volume of distribution (67 ml/kg)
*1 amine or outer side, *2 acyl side, *3 side chain or, on linkers, in order; H or OH if unused. Where a SMILES comes first, the peptide text is derived from it. Bridges are numbered along the chain shown (N, C = ends). [ ]: non-standard residue; d: D form. X1 = O=C(CC1(S[*:2])CCCCC1)[*:1]

compound	assayed target	Anti-ADH pA2
CC[C@H](C)[C@@H]1NC(=O)[C@H](Cc2ccccc2)NC(=O)[C@@H](Cc2ccccc2)NC(=O)CC2(CCCCC2)SSC[C@@H](C(=O)N2CCC[C@H]2C(=O)N[C@@H](CCCNC(=N)N)C(=O)NCC(N)=O)NC(=O)[C@H](CC(N)=O)NC1=O [d(CH2)5 [D-Phe^2,Ile^ 4]AVP, reference compound] ([dF]FINCPRG-NH2; linker N-5 via X1)	antidiuretic response to arginine vasopressin	8.24
CCOc1ccc(C[C@H]2NC(=O)CC3(CCCCC3)SSC[C@@H](C(=O)N3CCC[C@H]3C(=O)N[C@@H](CCCNC(=N)N)C(=O)O)NC(=O)[C@H](CC(N)=O)NC(=O)[C@H](C(C)C)NC(=O)[C@H](Cc3ccccc3)NC2=O)cc1 [desGly(NH2)^9 d(CH2)5 [D-Tyr(Et)^2]VAVP] ([dY](Et)FVNCPR-OH; linker N-5 via X1)	antidiuretic response to arginine vasopressin	7.78
